target of assay: Metabotropic glutamate receptor 7 (Rattus norvegicus)
Sequence (P35400 whole entry): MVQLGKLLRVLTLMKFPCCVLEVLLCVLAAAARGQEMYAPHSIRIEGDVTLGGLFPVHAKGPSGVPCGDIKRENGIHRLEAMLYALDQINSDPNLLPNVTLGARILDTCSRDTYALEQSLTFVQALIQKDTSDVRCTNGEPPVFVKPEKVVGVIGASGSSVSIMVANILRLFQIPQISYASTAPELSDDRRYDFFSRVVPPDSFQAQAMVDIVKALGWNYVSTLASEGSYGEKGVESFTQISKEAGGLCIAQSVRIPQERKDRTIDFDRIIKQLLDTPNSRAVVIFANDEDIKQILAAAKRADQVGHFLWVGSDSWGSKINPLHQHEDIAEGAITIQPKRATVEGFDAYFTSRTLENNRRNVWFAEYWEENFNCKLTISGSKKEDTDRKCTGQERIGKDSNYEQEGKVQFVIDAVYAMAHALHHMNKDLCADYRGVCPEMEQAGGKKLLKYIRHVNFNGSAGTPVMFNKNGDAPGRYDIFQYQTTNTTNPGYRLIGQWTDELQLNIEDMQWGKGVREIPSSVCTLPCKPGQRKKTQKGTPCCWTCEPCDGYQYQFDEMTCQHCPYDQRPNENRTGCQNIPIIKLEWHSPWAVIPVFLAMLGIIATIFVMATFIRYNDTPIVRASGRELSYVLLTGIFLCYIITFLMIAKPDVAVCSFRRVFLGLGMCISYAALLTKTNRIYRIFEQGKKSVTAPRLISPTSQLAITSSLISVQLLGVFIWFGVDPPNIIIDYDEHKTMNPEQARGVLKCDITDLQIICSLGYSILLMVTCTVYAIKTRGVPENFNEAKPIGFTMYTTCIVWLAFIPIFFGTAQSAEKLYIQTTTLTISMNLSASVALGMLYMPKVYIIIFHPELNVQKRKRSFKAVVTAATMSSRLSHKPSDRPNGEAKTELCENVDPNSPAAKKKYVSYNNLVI
assay overview: Agonist activity at rat mGluR7 receptor expressed HEK293 cells assessed as effect on inositol phosphate production
endpoint name: EC50

Qu. Return reported EC50; argument: CP(=O)(O)CC[C@H](N)C(=O)O
Ans. > 500 µM

Qu. Also, N[C@@H](CC[PH](=O)O)C(=O)O please.
Ans. > 500 µM

---

target of assay: Metabotropic glutamate receptor 8 (Rattus norvegicus)
Sequence (P70579 whole entry): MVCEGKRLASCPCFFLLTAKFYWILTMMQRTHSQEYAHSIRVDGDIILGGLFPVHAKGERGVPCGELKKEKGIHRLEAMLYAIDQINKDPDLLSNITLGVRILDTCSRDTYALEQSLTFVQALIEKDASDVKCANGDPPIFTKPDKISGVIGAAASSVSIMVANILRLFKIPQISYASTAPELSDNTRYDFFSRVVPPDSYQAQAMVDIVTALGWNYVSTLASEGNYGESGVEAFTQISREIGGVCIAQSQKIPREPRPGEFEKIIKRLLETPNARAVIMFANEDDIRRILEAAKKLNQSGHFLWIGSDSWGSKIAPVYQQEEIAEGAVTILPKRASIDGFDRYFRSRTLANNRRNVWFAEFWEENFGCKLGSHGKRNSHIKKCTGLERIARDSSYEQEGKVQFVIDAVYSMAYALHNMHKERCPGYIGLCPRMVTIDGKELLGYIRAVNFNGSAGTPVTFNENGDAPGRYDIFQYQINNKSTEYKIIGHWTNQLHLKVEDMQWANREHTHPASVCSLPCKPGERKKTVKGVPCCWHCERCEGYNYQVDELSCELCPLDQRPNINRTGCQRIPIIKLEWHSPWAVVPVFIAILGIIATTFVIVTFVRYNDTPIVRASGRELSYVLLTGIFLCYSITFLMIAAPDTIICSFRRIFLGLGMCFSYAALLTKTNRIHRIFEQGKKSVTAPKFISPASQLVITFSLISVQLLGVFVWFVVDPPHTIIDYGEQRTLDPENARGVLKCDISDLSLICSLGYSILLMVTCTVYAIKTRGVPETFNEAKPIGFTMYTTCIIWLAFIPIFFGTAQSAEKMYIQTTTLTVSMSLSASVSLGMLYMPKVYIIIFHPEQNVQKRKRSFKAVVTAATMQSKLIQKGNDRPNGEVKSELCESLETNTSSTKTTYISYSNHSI
assay overview: Agonist activity at rat mGluR8 receptor expressed HEK293 cells assessed as effect on inositol phosphate production
endpoint name: pEC50
Formally, pEC50 is defined as -log10 of the concentration c, with c in mol/L.

Qu. Suppose we examine the molecule N[C@@H](CC[PH](=O)O)C(=O)O ; what pEC50 value has been reported?
Ans. 5.76

Qu. Try this molecule too: CP(=O)(O)CC[C@H](N)C(=O)O
Ans. 3.39

---

target of assay: Metabotropic glutamate receptor 6 (Rattus norvegicus, UniProt P35349)
Sequence (P35349 whole entry): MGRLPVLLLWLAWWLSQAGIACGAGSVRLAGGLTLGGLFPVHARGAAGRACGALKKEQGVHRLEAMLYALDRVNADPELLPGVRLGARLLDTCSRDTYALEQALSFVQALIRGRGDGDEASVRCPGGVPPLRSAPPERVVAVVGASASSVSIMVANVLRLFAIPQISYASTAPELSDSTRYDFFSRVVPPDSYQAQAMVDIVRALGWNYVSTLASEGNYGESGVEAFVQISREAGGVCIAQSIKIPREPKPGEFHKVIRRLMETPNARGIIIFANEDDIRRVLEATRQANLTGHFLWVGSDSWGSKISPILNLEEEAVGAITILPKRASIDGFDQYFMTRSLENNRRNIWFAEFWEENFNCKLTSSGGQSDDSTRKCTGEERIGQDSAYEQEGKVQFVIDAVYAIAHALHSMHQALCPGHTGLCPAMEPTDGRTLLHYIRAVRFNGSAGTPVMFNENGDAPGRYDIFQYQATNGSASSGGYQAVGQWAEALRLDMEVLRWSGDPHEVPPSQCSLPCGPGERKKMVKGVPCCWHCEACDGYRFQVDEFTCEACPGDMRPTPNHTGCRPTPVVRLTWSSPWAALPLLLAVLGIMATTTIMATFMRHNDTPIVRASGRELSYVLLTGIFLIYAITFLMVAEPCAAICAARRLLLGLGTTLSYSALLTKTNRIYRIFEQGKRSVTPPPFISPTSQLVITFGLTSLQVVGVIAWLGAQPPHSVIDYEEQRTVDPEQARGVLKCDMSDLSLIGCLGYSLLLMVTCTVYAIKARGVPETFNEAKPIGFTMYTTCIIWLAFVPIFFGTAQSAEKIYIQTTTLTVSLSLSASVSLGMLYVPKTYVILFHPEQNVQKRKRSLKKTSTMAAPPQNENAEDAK
assay overview: Agonist activity at rat mGluR6 receptor expressed HEK293 cells assessed as effect on inositol phosphate production
endpoint name: pEC50
pEC50 here: minus log base 10 of the concentration, concentration in moles per litre.

Qu. Item under review: N[C@@H](CC[PH](=O)O)C(=O)O . Reported pEC50?
Ans. 4.56
